experiment: chemical genetic growth profiling, strain panel (AID 1159580);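 further: tested at 20 µM; growth read once vehicle control cultures reached saturation at 30 °C; 1 = growth at the plate median or of vehicle wells; lower values mean less growth of the strain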; conditions: S. cerevisiae deletion strains, growth OD, locus YJL115W, strain asf1, hits give low values
About 2,000 (36%) of roughly 5,500 compounds were called active. About 18% were inconclusive and are not listed. The list shows a part of the results.
quantity_name: normalized growth
Reply with the value as a number alone.

// known answers, use as guide
{"molecule": "CC(Oc1ccccc1)C(=O)N[C@@H]1C(=O)N2[C@@H]1SC(C)(C)[C@@H]2C(=O)O (some centres undefined)", "endpoint_value": 0.999}
{"molecule": "CC(=O)OCC(=O)[C@H]1CCC2C3CCC4=CC(=O)CC[C@]4(C)C3CC[C@@]21C (some centres undefined)", "endpoint_value": 0.984}
{"molecule": "COc1cc(O)c(C(=O)/C=C/c2ccccc2)c(OC)c1", "endpoint_value": 0.979}

INPUT: Name the reported normalized growth value associated with the molecule COc1cc(NC(C)CCCN)c2ncccc2c1 (centres undefined)
OUTPUT: 1.01

====

assay: chemical genetic growth profiling, strain panel (AID 1159580);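 further: tested at 20 µM; growth read once vehicle control cultures reached saturation at 30 °C; 1 = growth at the plate median or of vehicle wells; lower values mean less growth of the strain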; settings: S. cerevisiae deletion strains, growth OD, locus YOR083W, strain WHI5
The whole screen tested about 5,500 compounds, of which about 2,000 (36%) were called active. Another 18% or so got no clear call; they are omitted. Rule as the data show it: active = normalized growth mostly below about 0.91 (no sharp cut-off); inconclusive = no clear call, values can overlap the other calls; inactive = mostly above about 0.92. The list shows a part of the results.
Hi there, use one of these labels in your reply, thanks! y for active, n for inactive

Recorded results for 4 compounds are shown here.
{"compound": "ClC1=C(Cl)C2(Cl)C3C(Cl)C=CC3C1(Cl)C2(Cl)Cl (stereo unspecified)", "class": "n"}
{"compound": "COc1ccc2c(c1OC)C(=O)O[C@@H]2[C@H]1c2cc3c(cc2CCN1C)OCO3", "class": "n"}
{"compound": "CC(CCc1ccccc1)NC(C)C(O)c1ccc(O)cc1 (stereo unspecified)", "class": "n"}
{"compound": "CCCCCCCCCCCCCCCC[N+](C)(C)C", "class": "y"}

INPUT: What did this assay record as the result for CC(=O)N[C@@H](CC(C)C)C(=O)O ?
OUTPUT: n

INPUT: Same thing, different compound: COc1cc2c(cc1OC)Cc1cc(OC)c(OC)cc1Cc1cc(OC)c(OC)cc1C2
OUTPUT: n

====

The reader will find reported normalized growth values listed item by item below.
assay: chemical genetic growth profiling, strain panel (AID 1159580);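 further: tested at 20 µM; growth read once vehicle control cultures reached saturation at 30 °C; 1 = growth at the plate median or of vehicle wells; lower values mean less growth of the strain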; conditions: S. cerevisiae deletion strains, growth OD, locus YJL129C, strain trk1, hits give low values
Out of some 5,500 compounds screened, about 2,000 (36%) were called active. Not shown: some 18% with an inconclusive outcome. This is one part of the list.
Reply with just the number.

Worked examples, 3 compounds total:
{"compound": "CS(=O)(=O)c1ccc(C2=C(c3ccccc3)C(=O)OC2)cc1", "endpoint_value": 0.978}
{"compound": "CCCCCCCCCCCCCCCC(=O)OC/C=C(C)/C=C/C=C(C)/C=C/C1=C(C)CCCC1(C)C", "endpoint_value": 1.04}
{"compound": "COc1ccc2c(c1)O[C@@H]1COc3cc(OC)c(OC)cc3[C@@H]1C2=O", "endpoint_value": 0.441}

INPUT: Any idea what its normalized growth is? The compound is CC(C(=O)O)c1ccc(-c2ccccc2)c(F)c1 (stereo not drawn)
OUTPUT: 0.933

INPUT: COc1cc2c(cc1OC)Cc1cc(OC)c(OC)cc1Cc1cc(OC)c(OC)cc1C2 , same question.
OUTPUT: 1.05

INPUT: Another: COc1cc(NC(C)CCCN)c2ncccc2c1 (stereo not drawn)
OUTPUT: 1.04

INPUT: And then COP(=O)(OC)OC=C(Cl)Cl , what is it?
OUTPUT: 1.01

INPUT: Let us now turn to CC(NCCc1ccc(O)cc1)C(O)c1ccc(O)cc1 (stereo not drawn)
OUTPUT: 0.973

INPUT: Again, but for CC(C(=O)O)c1cccc(C(=O)c2ccccc2)c1 (stereo not drawn)
OUTPUT: 0.942

INPUT: Consider next the compound CCN(CCO)CCCC(C)Nc1ccnc2cc(Cl)ccc12 (stereo not drawn) in the same way.
OUTPUT: 0.991

INPUT: Another compound to check: CCOC(=O)[C@H](CCc1ccccc1)N[C@H]1CCc2ccccc2N(CC(=O)O)C1=O
OUTPUT: 0.973

INPUT: Here is the next compound: C=C(C)C1CNC(C(=O)O)C1CC(=O)O (stereo not drawn)
OUTPUT: 1

INPUT: Also CCOC(=O)c1c(C)cc(O)c(C=O)c1O ?
OUTPUT: 0.613

====

test: chemical genetic growth profiling, strain panel (AID 1159580);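 further: tested at 20 µM; growth read once vehicle control cultures reached saturation at 30 °C; 1 = growth at the plate median or of vehicle wells; lower values mean less growth of the strain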; conditions: S. cerevisiae deletion strains, growth OD, locus YBR021W, strain FUR4, hits give low values
Among all 5,500 compounds or so, about 2,000 (36%) were called active. Roughly 18% stayed inconclusive and do not appear here. This is one part of the list.
Listing of recorded normalized growth by entry.

{"molecule": "COc1cc2c(cc1OC)[C@@H]1C(=O)c3ccc4c(c3O[C@@H]1CO2)C=CC(C)(C)O4", "endpoint_value": "0.972 (inactive)"}
{"molecule": "COc1cc2c(cc1OC)C1C(=O)c3c(cc4c(c3O)C=CC(C)(C)O4)OC1CO2 (stereo not given)", "endpoint_value": "1 (inactive)"}
{"molecule": "CC1(C)OC(=O)NC1=O", "endpoint_value": "0.996 (inactive)"}
{"molecule": "O=C1C=CC(=C(c2ccc(O)cc2)c2ccc(O)cc2)C=C1", "endpoint_value": "0.992 (inactive)"}

INPUT: I am curious: what normalized growth value has been reported for CC(CCc1ccccc1)NC(C)C(O)c1ccc(O)cc1 (stereo not given) ?
OUTPUT: 0.997 (inactive)

INPUT: One more molecule: CNCCc1ccccn1
OUTPUT: 1.02 (inactive)

INPUT: Next up: CO[C@H]1[C@H](O)[C@H](O[C@H]2CC[C@]3(C)C4CC[C@]5(C)C(C6=CC(=O)OC6)CC[C@]5(O)C4CC[C@@H]3C2)O[C@@H](C)[C@@H]1O (stereo not given in full)
OUTPUT: 1.02 (inactive)

INPUT: # repeat for CCOC(=O)C(C)(C)Oc1ccc(Cl)cc1
OUTPUT: 0.988 (inactive)

INPUT: Next up: OCCN1C[C@@H](O)[C@@H](O)C(O)C1CO (stereo not given in full)
OUTPUT: 1.01 (inactive)

INPUT: Repeat for the following molecule: COc1cc(NC(C)CCCN)c2ncccc2c1 (stereo not given)
OUTPUT: 0.988 (inactive)
